- testedOn: ScLsb2
- procedureDetails: SPOT peptide array binding signal intensity (averaged, normalized) (arbitrary units (background-subtracted, floor 0; scale differs between SH3 domains)); higher = stronger binding of the SH3 domain to the peptide
Threshold rule: SPOT peptide array binding signal intensity greater than or equal to 10 is criterion met; below that, criterion not met.

Some solved cases for reference:
{"binder": "RSKRLFPVRPMATAH", "classLabel": "criterion not met"}
{"binder": "RSLRKRPTSPSISGS", "classLabel": "criterion met"}
{"binder": "GAGERPRLVPRPINV", "classLabel": "criterion not met"}
{"binder": "QHQQRQPKRPKRYSL", "classLabel": "criterion met"}

Would you say NNNKMRPHLPPLSSG shows SPOT peptide array binding signal intensity at minimum 10? criterion not met

Entry NPLPKEPRLPKRKVA : is its SPOT peptide array binding signal intensity no less than 10? criterion not met

Form field: SPOT peptide array binding signal intensity at least 10? Entry: RSRRSSFAYPQQVAI criterion not met

Determine whether measured SPOT peptide array binding signal intensity meets or exceeds 10 for LLRRTIPKRPFYHVL criterion met

Does SPOT peptide array binding signal intensity meet or surpass 10 for ERPKRRAPPPVPKKP ? criterion met

SPOT peptide array binding signal intensity >= 10 for HKVLRPFLLRRLKKD ? criterion not met

Quick check, SPOT peptide array binding signal intensity >= 10? RSVKRPRRAPRPVVS criterion met

SPOT peptide array binding signal intensity >= 10 for DRIRMFIRFPKFLLE ? criterion not met
